All figures here come from the supplement of paper PMC11208160.

# test protocol: recombinant UMI read abundance after kanamycin selection (control-corrected) (log10(CPM+1)); higher = more efficient recombination; extreme values may be limits of the assay; sequences stand for … in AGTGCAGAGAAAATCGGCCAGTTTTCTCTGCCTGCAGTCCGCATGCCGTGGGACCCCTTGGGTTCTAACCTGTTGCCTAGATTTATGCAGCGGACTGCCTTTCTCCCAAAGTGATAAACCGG…AGGTTGGTTTCACT; site = the 11-nt donor;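 further: IS621 bridge recombinase in Escherichia coli cells against a fixed T5 target plasmid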
# key: entry, value: recombinant UMI read abundance (log10)
// keep it numeric: no unit symbol after the value

Lab note: measured recombinant UMI read abundance (log10) of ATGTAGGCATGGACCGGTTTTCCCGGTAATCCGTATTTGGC (site ATGTTGGCTGC) was 0.568

---

# key: entry, value: recombinant UMI read abundance (log10)
# test protocol: recombinant UMI read abundance after kanamycin selection (control-corrected) (log10(CPM+1)); higher = more efficient recombination; extreme values may be limits of the assay; sequences stand for … in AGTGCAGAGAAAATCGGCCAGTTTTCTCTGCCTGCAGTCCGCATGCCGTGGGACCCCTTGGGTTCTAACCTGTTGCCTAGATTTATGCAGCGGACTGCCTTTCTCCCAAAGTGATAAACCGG…AGGTTGGTTTCACT; site = the 11-nt donor
// keep it numeric: no unit symbol after the value

Please review the following examples before continuing.
[[record]]
ordered_residues = "CGATGACCATGGACCGGTTTTCCCGGTAATCCGTATTTGCT (site CGATCATCTAG)"
endpoint = "recombinant UMI read abundance (log10)"
obs_value = 0

[[record]]
ordered_residues = "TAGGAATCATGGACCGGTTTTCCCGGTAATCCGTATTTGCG (site TAGGTATCTCG)"
endpoint = "recombinant UMI read abundance (log10)"
obs_value = 1.63

[[record]]
ordered_residues = "CGAAATCCATGGACCGGTTTTCCCGGTAATCCGTATTTGCT (site CGAAATCCTAG)"
endpoint = "recombinant UMI read abundance (log10)"
obs_value = 0.783


Lab note: measured recombinant UMI read abundance (log10) of AATAGTACATGGACCGGTTTTCCCGGTAATCCGTATTTGTC (site AATAGTACTGA) was 1.89

---

# test protocol: recombinant UMI read abundance after kanamycin selection (control-corrected) (log10(CPM+1)); higher = more efficient recombination; extreme values may be limits of the assay; sequences stand for … in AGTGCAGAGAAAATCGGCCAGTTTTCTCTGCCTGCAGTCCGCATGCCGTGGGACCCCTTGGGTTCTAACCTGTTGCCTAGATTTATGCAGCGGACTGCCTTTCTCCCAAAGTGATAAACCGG…AGGTTGGTTTCACT; site = the 11-nt donor
Decision: recombinant UMI read abundance (log10) compared against 0.7; not below it gives Satisfied, below it gives Not satisfied.

[[record]]
ordered_residues = "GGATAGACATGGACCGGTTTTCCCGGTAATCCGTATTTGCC (site GGATCGACTGG)"
classification = "Not satisfied"

[[record]]
ordered_residues = "GGATTGGCATGGACCGGTTTTCCCGGTAATCCGTATTTGGT (site GGACTGGCTAC)"
classification = "Not satisfied"

[[record]]
ordered_residues = "CCCTCCTCATGGACCGGTTTTCCCGGTAATCCGTATTTGGG (site CCCTTCTCTCC)"
classification = "Not satisfied"

[[record]]
ordered_residues = "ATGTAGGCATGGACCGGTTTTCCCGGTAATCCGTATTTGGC (site ATGTAGGCTAC)"
classification = "Satisfied"

[[record]]
ordered_residues = "GAGGATTCATGGACCGGTTTTCCCGGTAATCCGTATTTGTT (site GAAGATTCTAA)"
classification = "Satisfied"

[[record]]
ordered_residues = "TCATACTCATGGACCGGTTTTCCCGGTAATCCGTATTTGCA (site TCATGCTCTTG)"
classification = "Not satisfied"

[[record]]
ordered_residues = "AGTGTGACATGGACCGGTTTTCCCGGTAATCCGTATTTGTA (site AGTGTGACTTA)"
classification = "Satisfied"

[[record]]
ordered_residues = "TGTCGAGCATGGACCGGTTTTCCCGGTAATCCGTATTTGTA (site TGTCGAGCTTA)"
classification = "Satisfied"


We next turn to a different sequence, shown below.
# input Is reported recombinant UMI read abundance (log10) greater than or equal to 0.7 here: CCTAAAGCATGGACCGGTTTTCCCGGTAATCCGTATTTGTT (site CCTAAAGCTAG)
# output Not satisfied
